All figures here come from the supplement of paper PMC5998384.

This section presents sequences with their documented solubility change mitosis (log2) values.
- Test system: HeLa Kyoto;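 note: synchronized HeLa Kyoto cells (double thymidine block for G1/S, nocodazole release for mitosis), protein amounts in NP-40 versus SDS lysates quantified by mass spectrometry, three biological replicates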
- protocol_text: solubility change mitosis vs G1/S (difference of NP-40 vs SDS log2 ratios) (log2 ratio difference); higher = more soluble in mitosis
Answer field: number only, no words.

Some entries whose results are on file:
[
  {
    "sequence_string": "MSERKVLNKYYPPDFDPSKIPKLKLPKDRQYVVRLMAPFNMRCKTCGEYIYKGKKFNARKETVQNEVYLGLPIFRFYIKCTRCLAEITFKTDPENTDYTMEHGATRNFQAEKLLEEEEKRVQKEREDEELNNPMKVLENRTKDSKLEMEVLENLQELKDLNQRQAHVDFEAMLRQHRLSEEERRRQQQEEDEQETAALLEEARKRRLLEDSDSEDEAAPSPLQPALRPNPTAILDEAPKPKRKVEVWEQSVGSLGSRPPLSRLVVVKKAKADPDCSNGQPQAAPTPGAPQNRKEANPTPLTPGASSLSQLGAYLDSDDSNGSN [CCDC94]",
    "solubility change mitosis (log2)": -0.0138
  },
  {
    "sequence_string": "MAARVLRARGAAWAGGLLQRAAPCSLLPRLRTWTSSSNRSREDSWLKSLFVRKVDPRKDAHSNLLAKKETSNLYKLQFHNVKPECLEAYNKICQEVLPKIHEDKHYPCTLVGTWNTWYGEQDQAVHLWRYEGGYPALTEVMNKLRENKEFLEFRKARSDMLLSRKNQLLLEFSFWNEPVPRSGPNIYELRSYQLRPGTMIEWGNYWARAIRFRQDGNEAVGGFFSQIGQLYMVHHLWAYRDLQTREDIRNAAWHKHGWEELVYYTVPLIQEMESRIMIPLKTSPLQ [GBAS]",
    "solubility change mitosis (log2)": -0.0463
  },
  {
    "sequence_string": "MEPRAVGVSKQDIREQIWGYMESQNLADFPRPVHHRIPNFKGSYLACQNIKDLDVFARTQEVKVDPDKPLEGVRLLVLQSKKTLLVPTPRLRTGLFNKITPPPGATKDILRKCATSQGVRNYSVPIGLDSRVLVDLVVVGSVAVSEKGWRIGKGEGYADLEYAMMVSMGAVSKETPVVTIVHDCQVVDIPEELVEEHDITVDYILTPTRVIATGCKRPKPMGITWFKISLEMMEKIPILRSLRAREQQAGKDVTLQGEHQHLPEPGCQQTVPLSVGRRPPDTPGPETNSMEAAPGSPPGEGAPLAADVYVGNLPGDARVSDLKRALRELGSVPLRLTWQGPRRRAFLHYPDSAAAQQAVSCLQGLRLGTDTLRVALARQQRDK [MTHFSD]",
    "solubility change mitosis (log2)": 0.0284
  }
]

## Input Using known records, supply solubility change mitosis (log2) for MDRTCEERPAEDGSDEEDPDSMEAPTRIRDTPEDIVLEAPASGLAFHPARDLLAAGDVDGDVFVFSYSCQEGETKELWSSGHHLKACRAVAFSEDGQKLITVSKDKAIHVLDVEQGQLERRVSKAHGAPINSLLLVDENVLATGDDTGGICLWDQRKEGPLMDMRQHEEYIADMALDPAKKLLLTASGDGCLGIFNIKRRRFELLSEPQSGDLTSVTLMKWGKKVACGSSEGTIYLFNWNGFGATSDRFALRAESIDCMVPVTESLLCTGSTDGVIRAVNILPNRVVGSVGQHTGEPVEELALSHCGRFLASSGHDQRLKFWDMAQLRAVVVDDYRRRKKKGGPLRALSSKTWSTDDFFAGLREEGEDSMAQEEKEETGDDSD [WDR55]
## Output -0.0465
